experiment: MTT cytotoxicity assay of octenidine/carbenicillin GUMBOS; format: cell-based; conditions: human
Counter-ions that a name gives are not always drawn.
assay_endpoint: IC50 at 15 min (µg/mL)
Field: numeric (µg/mL). Do not append units.

Prompt: May I ask what IC50 at 15 min has been recorded for CCCCCCCCN=c1ccn(CCCCCCCCCCn2ccc(=NCCCCCCCC)cc2)cc1 [Octenidine dihydrochloride, octenidine dihydrochloride] ?
Completion: 37.4

Values were extracted from patent US20240197702A1.
